Cited source for all entries: paper PMC9352680

# Experimental Target: T1, PUF4 RNA-binding domain (Saccharomyces cerevisiae, UniProt P25339 537-888)
# T1 sequence: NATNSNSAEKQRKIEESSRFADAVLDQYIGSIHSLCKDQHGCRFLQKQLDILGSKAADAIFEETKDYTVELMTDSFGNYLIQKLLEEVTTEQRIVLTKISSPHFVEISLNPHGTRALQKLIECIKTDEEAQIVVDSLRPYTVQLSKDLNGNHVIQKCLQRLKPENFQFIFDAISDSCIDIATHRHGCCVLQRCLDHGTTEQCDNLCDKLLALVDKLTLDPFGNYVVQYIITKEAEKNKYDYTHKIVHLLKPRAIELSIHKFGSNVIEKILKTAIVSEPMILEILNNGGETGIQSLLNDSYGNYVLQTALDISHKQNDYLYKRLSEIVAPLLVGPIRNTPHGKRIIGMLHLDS
# Protocol Summary: Mg; RNA-MaP; 20 mM Na-HEPES pH 7.4, 30 mM KOAc, 0.75 mM MgCl2, 0.1% Tween-20, 5% glycerol, 0.1 mg/mL BSA, 2 mM DTT; 25 C; 0.0125-409.6 nM protein
# Condition Info: tags: N-His6-TEV cleaved; C-SNAP kept, Cy3B-labelled; label: tethered on chip by stalled RNA polymerase
pKd: −log10 of the molar value.
Classify as follows. Reported pKd greater than or equal to 8: 1. Reported pKd below: 0.

INSERT INTO measurements (binder, label_value) VALUES
  ('Id_ii_S2_P4E.2_K4.1_C4.2_[C-2G]_[T-1C]_H4.1_A4.1_F4.1_T4.2_[G10T] (ssRNA) RNA: UUUGAUUAAUAUGAUAUCGUUCUUUCUGCUGUAUAUUAUUUUCUUUCUCGAUAUCAUAUUAAUCUUU', 1),
  ('Id_iii_S2_P4E.5_K4.1_C4.3_[T-1G]_H4.1_A4.1_F4.1_T4.2 (ssRNA) RNA: UUUGAUUAAUAUGAUAUCGUUCUUUCUUCGUGUAUAUUAGUUUCUUUCUCGAUAUCAUAUUAAUCUUU', 1),
  ('UCUCUUUAUAUAUAUAUCUCUCUU (ssRNA) [Id_ii_S1_P3E.3_K3.2_C3.2_[C-2T]_[T-1A]_H3.2_A3.1_F3.1_T3.2_[A10C]]', 0),
  ('Ib_S2_P4E.1_K4.1_C4.1_H4.1_[A4T]_A4.1_[A6G]_F4.1_T4.1 (ssRNA) RNA: UUUGAUUAAUAUGAUAUCGUUCUUUCUUGUUUGUUAUUCUUUCUCGAUAUCAUAUUAAUCUUU', 0),
  ('UCUCUUUGUAACAGUCUCUU (ssRNA) [Ic_S1_P3E.1_K3.1_C3.1_H3.1_A3.1_[T5A]_[A6C]_F3.1_[T7A]_[A8G]_T3.1]', 0),
  ('UCUCUUUGUACCUACUCUCUU (ssRNA) [Ic_S1_P4E.1_K4.1_C4.1_H4.1_A4.1_[T5C]_[A6C]_F4.1_[T8A]_[A9C]_T4.1]', 0),
  ('UCUCUUUGUACAGCCCUCUCUU (ssRNA) [Ic_S1_P5E.1_K5.1_C5.1_H5.1_A5.1_[T5C]_[T6A]_[A7G]_F5.1_[T8C]_[T9C]_[A10C]_T5.1]', 0),
  ('Id_i_S4_P3E.2_K3.1_C3.2_[C-2T]_[T-1A]_H3.1_A3.1_F3.1_T3.2 (ssRNA) RNA: UUUGACAACUGAUCGUUCUUUCUUAUGUAUAUAUAUUCUUUCUCGAUCAGUUGUCUUU', 1),
  ('Ia_S4_P3E.1_K3.1_C3.1_H3.1_[G2C]_A3.1_F3.1_T3.1 (ssRNA) RNA: UUUGACAACUGAUCGUUCUUUCUUCUAUAUAUUCUUUCUCGAUCAGUUGUCUUU', 0),
  ('UCUCUUUCUAUAUAUACGUCUCUU (ssRNA) [Id_ii_S1_P3E.3_K3.2_C3.2_[C-2T]_[T-1C]_H3.2_A3.1_F3.1_T3.2_[T9C]_[A10G]]', 0),
  ('UCUCUUUGUAAUAAUAUCUCUU (ssRNA) [Ib_S1_P5E.1_K5.1_C5.1_H5.1_A5.1_[T5A]_F5.1_[T8A]_T5.1]', 0);
